- experimental_protocol: Sensory test of reduction of the odor of 2,6-dimethylpyrazine in dough
- measurement_parameters: flavoring agent 0.5 μL added to dough 0.5 g containing 1% 2,6-dimethylpyrazine; four panelists; rating 1 to 5; FIG. 3
observation_type: odor of 2,6-dimethylpyrazine in sensory test

Query string: Item under review: "CCCCCCC(C=O)=Cc1ccccc1" . Reported odor of 2,6-dimethylpyrazine in sensory test?
Result string: inhibited

Query string: Another compound to check: CCCCCCCC1CCC(=O)O1 (stereo not drawn)
Result string: inhibited

Query string: Another compound to check: CC(=CCC1CC=C(C)C1(C)C)CO (stereo not drawn)
Result string: inhibited

----------
# Lookup of reported inhibition at 300 µM keyed by entry
- experimental_system: olfactory receptor OR5K1 (Homo sapiens, UniProt Q8NHB7)
- Construct: expressed in transfected cells; host or cells: HEK293
- Sequence (Q8NHB7 1-308): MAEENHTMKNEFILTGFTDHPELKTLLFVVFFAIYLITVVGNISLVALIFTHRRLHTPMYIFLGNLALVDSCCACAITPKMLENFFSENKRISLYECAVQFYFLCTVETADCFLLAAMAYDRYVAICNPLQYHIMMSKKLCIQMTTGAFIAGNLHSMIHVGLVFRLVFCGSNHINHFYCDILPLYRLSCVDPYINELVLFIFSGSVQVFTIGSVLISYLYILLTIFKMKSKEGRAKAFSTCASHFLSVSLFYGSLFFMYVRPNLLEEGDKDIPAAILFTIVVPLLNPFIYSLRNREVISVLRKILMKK
- experimental_protocol: Antagonist assay: inhibition of OR5K1 response to 2,6-dimethylpyrazine (luciferase reporter)
- Type: cell-based
- measurement_parameters: HEK293 cells expressing OR5K1; 2,6-dimethylpyrazine 1 mM + test substance 300 μM (cytotoxic flavoring agents re-evaluated at 333 μM + 100 μM); read-out: Inhibition rate (receptor response-inhibiting rate)
- Protocol: The receptor response-inhibiting rate of a test substance was calculated as follows. The receptor activity (X−Y) by stimulation with 2,6-dimethylpyrazine alone was determined by subtracting the luminescence value (Y) in cells to which the receptor was introduced but were not stimulated with 2,6-dimethylpyrazine from the luminescence value (X) derived from firefly luciferase induced by stimulation with 2,6-dimethylpyrazine alone. […]

Example compounds with recorded inhibition at 300 µM:
Query string: Item under review: CCC(O)COC1CCCCC1C(C)(C)C (stereo not shown) [Amber Core, 1-(2-tert-butylcyclohexyloxy)-2-butanol] . Reported inhibition at 300 µM?
Result string: ≥ 75%

Query string: Another compound to check: CC=CC(=O)C1=C(C)C=CCC1(C)C [damascenone]
Result string: ≥ 40%

Query string: Another compound to check: CCCCCC1=C(C)CCC1=O [dihydrojasmon, 2-pentyl-3-methyl-2-cyclopenten-1-one]
Result string: ≥ 40%

Next:
Query string: Item under review: Cc1ccc(C(C)C)c(O)c1 [thymol, 5-methyl-2-(1-methylethyl)-phenol] . Reported inhibition at 300 µM?
Result string: ≥ 75%
